- targetDesc: Vascular endothelial growth factor receptor 2 (Homo sapiens, UniProt P35968)
- Sequence (P35968 whole entry): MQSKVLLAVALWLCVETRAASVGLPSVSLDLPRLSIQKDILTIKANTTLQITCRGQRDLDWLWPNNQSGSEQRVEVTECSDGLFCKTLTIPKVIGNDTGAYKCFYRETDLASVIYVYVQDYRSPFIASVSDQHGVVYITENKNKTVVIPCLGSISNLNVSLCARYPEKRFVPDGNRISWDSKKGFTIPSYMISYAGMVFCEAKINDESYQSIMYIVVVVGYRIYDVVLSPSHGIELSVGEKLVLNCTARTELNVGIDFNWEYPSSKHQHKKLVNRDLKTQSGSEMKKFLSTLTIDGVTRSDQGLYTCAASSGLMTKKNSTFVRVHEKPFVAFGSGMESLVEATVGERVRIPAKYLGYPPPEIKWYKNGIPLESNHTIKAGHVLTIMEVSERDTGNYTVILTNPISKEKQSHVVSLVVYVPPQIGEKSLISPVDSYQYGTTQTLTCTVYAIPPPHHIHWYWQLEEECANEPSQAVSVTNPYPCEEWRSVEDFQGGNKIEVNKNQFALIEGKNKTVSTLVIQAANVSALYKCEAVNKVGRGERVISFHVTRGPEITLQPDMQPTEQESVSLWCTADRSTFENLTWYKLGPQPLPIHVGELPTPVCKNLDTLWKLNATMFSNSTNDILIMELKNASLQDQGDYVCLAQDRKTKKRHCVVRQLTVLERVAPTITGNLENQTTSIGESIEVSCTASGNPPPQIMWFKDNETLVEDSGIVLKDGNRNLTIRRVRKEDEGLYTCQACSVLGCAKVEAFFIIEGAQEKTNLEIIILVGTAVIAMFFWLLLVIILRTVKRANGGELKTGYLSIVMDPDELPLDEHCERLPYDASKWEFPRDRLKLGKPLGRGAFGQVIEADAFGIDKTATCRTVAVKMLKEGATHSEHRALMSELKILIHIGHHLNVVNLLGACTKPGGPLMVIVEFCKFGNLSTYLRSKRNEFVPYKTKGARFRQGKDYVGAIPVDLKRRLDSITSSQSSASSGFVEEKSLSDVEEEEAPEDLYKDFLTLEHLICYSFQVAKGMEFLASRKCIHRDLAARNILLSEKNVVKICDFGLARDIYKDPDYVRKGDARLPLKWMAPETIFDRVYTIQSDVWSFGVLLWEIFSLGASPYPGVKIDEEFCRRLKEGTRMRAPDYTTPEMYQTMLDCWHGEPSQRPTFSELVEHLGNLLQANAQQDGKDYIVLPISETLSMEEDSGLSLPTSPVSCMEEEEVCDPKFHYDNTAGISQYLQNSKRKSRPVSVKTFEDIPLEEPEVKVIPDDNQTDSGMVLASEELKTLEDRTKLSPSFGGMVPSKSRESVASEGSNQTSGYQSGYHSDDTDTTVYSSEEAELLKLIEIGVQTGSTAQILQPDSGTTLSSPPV
Define the label as Y when IC50 is strictly less than 90 nM and as N in all remaining cases.

[in] Please check: IC50 for O=C(Nc1ccc(OCCN2CCCC2)cc1)c1cccc(-c2cccc(O)c2)c1 , strictly under 90 nM or not?
[out] Y

[in] For this compound, is IC50 lower than 90 nM? COc1ccc(C(=O)Nc2ccc(OCCN3CCCCC3)c(Cl)c2)c(-c2cccc(O)c2)c1O
[out] N

[in] API: query returns whether the compound falls strictly under 90 nM in IC50. Query: CN(C)CCCOc1ccc(NC(=O)c2cccc(-c3cccc(O)c3)c2)cc1Cl
[out] Y

[in] Consider the compound CN(C)CCOc1ccc(NC(=O)c2cccc(-c3cccc(O)c3)c2)cc1F . Is its IC50 strictly less than 90 nM?
[out] Y

[in] Given the entry COc1ccc(C(=O)Nc2ccc(OCCN(C)C)cc2)c(-c2cccc(O)c2)c1O , would its reported IC50 be below 90 nM?
[out] N

// provenance: ChEMBL document CHEMBL3396971
